For each of the compounds below, state its Dmax at 18 h.
- TARGET: KRAS4B G12D (Homo sapiens, UniProt P01116, G12D)
- Construct: HiBit; expressed in transfected cells; host or cells: GP5d cells (ECACC 95090715), stably transduced with lentivirus, CMV promoter
- Sequence (P01116 1-188 isoform P01116-2 G12D): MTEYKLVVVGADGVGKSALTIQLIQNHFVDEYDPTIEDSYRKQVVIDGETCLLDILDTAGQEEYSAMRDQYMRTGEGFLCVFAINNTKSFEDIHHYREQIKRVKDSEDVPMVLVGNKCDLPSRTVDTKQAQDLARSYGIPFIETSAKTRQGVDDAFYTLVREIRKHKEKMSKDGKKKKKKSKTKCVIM
- METHOD_SUMMARY: HiBit KRAS4B mutant spectrum degradation assay, KRAS4B G12D in GP5d cells (18 h)
- Type: cell-based
- CONDITION_DETAILS: KRAS mutation G12D
One number for each entry, in % Ctrl..

Use these answered entries as a reference point.
>>> obs_value("Cc1ncsc1-c1ccc([C@H](CO)NC(=O)[C@@H]2C[C@@H](O)CN2C(=O)[C@H](C(C)C)n2cc(OC(C)CCCN3CCCN(c4nccc(-c5noc([C@@]6(C)CCCc7sc(N)c(C#N)c76)n5)n4)[C@@H](C)C3)nn2)cc1 (stereo partly shown)")
95.8
>>> obs_value("Cc1ncsc1-c1ccc([C@H](CO)NC(=O)[C@@H]2C[C@@H](O)CN2C(=O)[C@H](C(C)C)n2cc(OCCCC(C)N3CCCN(c4nccc(-c5noc([C@@]6(C)CCCc7sc(N)c(C#N)c76)n5)n4)[C@@H](C)C3)nn2)cc1 (stereo partly shown)")
96.1
>>> obs_value("Cc1ncsc1-c1ccc([C@@H](NC(=O)[C@@H]2C[C@@H](O)CN2C(=O)[C@H](C(C)C)n2cc(OCCCCN3CCCN(c4nccc(-c5noc([C@@]6(C)CCCc7sc(N)c(C#N)c76)n5)n4)[C@@H](C)C3)nn2)[C@H](C)O)cc1 (single isomer, unassigned)")
96.1

// moving on: another record for Dmax at 18 h
Value of measured Dmax at 18 h for the entry Cc1ncsc1-c1ccc(CNC(=O)[C@@H]2C[C@@H](O)CN2C(=O)[C@@H](c2cc(OCCCN3CCCN(c4nccc(-c5noc([C@@]6(C)CCCc7sc(N)c(C#N)c76)n5)n4)[C@@H](C)C3)no2)C(C)C)cc1 (single isomer, unassigned) : 96

---

- TARGET: KRAS4B G12V (Homo sapiens, UniProt P01116, G12V)
- Construct: HiBit; expressed in transfected cells; host or cells: GP5d cells (ECACC 95090715), stably transduced with lentivirus, CMV promoter
- Sequence (P01116 1-188 isoform P01116-2 G12V): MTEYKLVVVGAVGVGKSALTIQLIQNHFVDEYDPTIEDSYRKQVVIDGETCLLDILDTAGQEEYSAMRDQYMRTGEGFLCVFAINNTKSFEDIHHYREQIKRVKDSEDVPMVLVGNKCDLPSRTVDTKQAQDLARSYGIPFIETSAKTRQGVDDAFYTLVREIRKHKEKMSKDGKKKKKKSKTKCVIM
- METHOD_SUMMARY: HiBit KRAS4B mutant spectrum degradation assay, KRAS4B G12V in GP5d cells (18 h)
- Format: cell-based
- CONDITION_DETAILS: KRAS mutation G12V
- Description: The therapeutically relevant mutant KRAS constructs (WT, G12C, G12D, G12V, G13D) were obtained by site directed mutagenesis using a KRAS4B WT cDNA construct as a template. GP5d cells (ECACC Cat. No. 95090715) were transduced with lentiviral vectors expressing mutant KRAS4B cDNA under control of a CMV promoter. Stably transduced cells were selected using a neomycin selectable marker encoded on the construct. […]
READOUT_TYPE: Dmax at 18 h (% Ctrl.)
One number for each entry, in % Ctrl..

>>> obs_value("Cc1ncsc1-c1ccc(CNC(=O)[C@@H]2C[C@@H](O)CN2C(=O)[C@@H](c2cc(OCCCN3CCCN(c4nccc(-c5noc([C@@]6(C)CCCc7sc(N)c(C#N)c76)n5)n4)[C@@H](C)C3)no2)C(C)C)cc1 (single isomer, unassigned)")
90.5
>>> obs_value("Cc1ncsc1-c1ccc([C@@H](NC(=O)[C@@H]2C[C@@H](O)CN2C(=O)[C@H](C(C)C)n2cc(OCCCCN3CCCN(c4nccc(-c5noc([C@@]6(C)CCCc7sc(N)c(C#N)c76)n5)n4)[C@@H](C)C3)nn2)[C@H](C)O)cc1 (single isomer, unassigned)")
90.8
>>> obs_value("Cc1ncsc1-c1ccc([C@H](CO)NC(=O)[C@@H]2C[C@@H](O)CN2C(=O)[C@H](C(C)C)n2cc(OCCCCN3CCCN(c4nccc(-c5noc([C@@]6(C)CCCc7sc(N)c(C#N)c76)n5)n4)[C@@H](C)C3)nn2)cc1")
90.5
>>> obs_value("Cc1ncsc1-c1ccc(CNC(=O)[C@@H]2C[C@@H](O)CN2C(=O)[C@@H](NC(=O)CCCCCN2CCCN(c3nccc(-c4noc([C@@]5(C)CCCc6sc(N)c(C#N)c65)n4)n3)[C@@H](C)C2)C(C)(C)C)cc1")
90
>>> obs_value("Cc1ncsc1-c1ccc(CNC(=O)[C@@H]2C[C@@H](O)CN2C(=O)[C@@H](c2cc(OCCCCN3CCCN(c4nccc(-c5noc([C@@]6(C)CCCc7sc(N)c(C#N)c76)n5)n4)[C@@H](C)C3)no2)C(C)C)cc1 (single isomer, unassigned)")
86
>>> obs_value("Cc1ncsc1-c1ccc([C@H](CO)NC(=O)[C@@H]2C[C@@H](O)CN2C(=O)[C@H](C(C)C)n2cc(OC(C)CCCN3CCCN(c4nccc(-c5noc([C@@]6(C)CCCc7sc(N)c(C#N)c76)n5)n4)[C@@H](C)C3)nn2)cc1 (some centres unmarked)")
89.2
>>> obs_value("Cc1ncsc1-c1ccc([C@H](CO)NC(=O)[C@@H]2C[C@@H](O)CN2C(=O)[C@H](C(C)C)n2cc(OCCCC(C)N3CCCN(c4nccc(-c5noc([C@@]6(C)CCCc7sc(N)c(C#N)c76)n5)n4)[C@@H](C)C3)nn2)cc1 (some centres unmarked)")
91.0

// moving on: another record for Dmax at 18 h
Value of measured Dmax at 18 h for the entry Cc1ncsc1-c1ccc([C@@H](NC(=O)[C@@H]2C[C@@H](O)CN2C(=O)[C@H](C(C)C)n2cc(OCCCN3CCCN(c4nccc(-c5noc([C@@]6(C)CCCc7sc(N)c(C#N)c76)n5)n4)[C@@H](C)C3)nn2)[C@H](O)C(C)C)cc1 (single isomer, unassigned) : 89.4

---

- TARGET: KRAS4B G12V (Homo sapiens, UniProt P01116, G12V)
- Construct: HiBit; expressed in transfected cells; host or cells: GP5d cells (ECACC 95090715), stably transduced with lentivirus, CMV promoter
- METHOD_SUMMARY: HiBit KRAS4B mutant spectrum degradation assay, KRAS4B G12V in GP5d cells (18 h)
- Assay type: cell-based
- CONDITION_DETAILS: KRAS mutation G12V
READOUT_TYPE: DC50 (nM)
Answers are plain numbers, in nM.

>>> obs_value("Cc1ncsc1-c1ccc([C@H](CO)NC(=O)[C@@H]2C[C@@H](O)CN2C(=O)[C@H](C(C)C)n2cc(OC(C)CCCN3CCCN(c4nccc(-c5noc([C@@]6(C)CCCc7sc(N)c(C#N)c76)n5)n4)[C@@H](C)C3)nn2)cc1 (some centres unmarked)")
8.7
>>> obs_value("Cc1ncsc1-c1ccc([C@@H](NC(=O)[C@@H]2C[C@@H](O)CN2C(=O)[C@H](C(C)C)n2cc(OCCCN3CCCN(c4nccc(-c5noc([C@@]6(C)CCCc7sc(N)c(C#N)c76)n5)n4)[C@@H](C)C3)nn2)[C@H](O)C(C)C)cc1 (single isomer, unassigned)")
2.6
>>> obs_value("Cc1ncsc1-c1ccc(CNC(=O)[C@@H]2C[C@@H](O)CN2C(=O)[C@@H](c2cc(OCCCCN3CCCN(c4nccc(-c5noc([C@@]6(C)CCCc7sc(N)c(C#N)c76)n5)n4)[C@@H](C)C3)no2)C(C)C)cc1 (single isomer, unassigned)")
2.7
>>> obs_value("Cc1ncsc1-c1ccc(CNC(=O)[C@@H]2C[C@@H](O)CN2C(=O)[C@@H](c2cc(OCCCN3CCCN(c4nccc(-c5noc([C@@]6(C)CCCc7sc(N)c(C#N)c76)n5)n4)[C@@H](C)C3)no2)C(C)C)cc1 (single isomer, unassigned)")
3.8
>>> obs_value("Cc1ncsc1-c1ccc([C@@H](NC(=O)[C@@H]2C[C@@H](O)CN2C(=O)[C@H](C(C)C)n2cc(OCCCCN3CCCN(c4nccc(-c5noc([C@@]6(C)CCCc7sc(N)c(C#N)c76)n5)n4)[C@@H](C)C3)nn2)[C@H](C)O)cc1 (single isomer, unassigned)")
2.5
>>> obs_value("Cc1ncsc1-c1ccc([C@H](CO)NC(=O)[C@@H]2C[C@@H](O)CN2C(=O)[C@H](C(C)C)n2cc(OCCCCN3CCCN(c4nccc(-c5noc([C@@]6(C)CCCc7sc(N)c(C#N)c76)n5)n4)[C@@H](C)C3)nn2)cc1")
3.5
>>> obs_value("Cc1ncsc1-c1ccc(CNC(=O)[C@@H]2C[C@@H](O)CN2C(=O)[C@@H](NC(=O)CCCCCN2CCCN(c3nccc(-c4noc([C@@]5(C)CCCc6sc(N)c(C#N)c65)n4)n3)[C@@H](C)C2)C(C)(C)C)cc1")
98.8

Value of measured DC50 for the entry Cc1ncsc1-c1ccc([C@H](CO)NC(=O)[C@@H]2C[C@@H](O)CN2C(=O)[C@H](C(C)C)n2cc(OCCCC(C)N3CCCN(c4nccc(-c5noc([C@@]6(C)CCCc7sc(N)c(C#N)c76)n5)n4)[C@@H](C)C3)nn2)cc1 (some centres unmarked) : 2.2

These data points were gathered from patent US20250145608A1.
